- Assay target: D2 (Oryctolagus cuniculus, UniProt G1T1Q0)
- Construct: perfused rabbit ear artery test; from tissue; host or cells: perfused rabbit ear artery (sympathetic nerve terminals)
- Sequence (G1T1Q0 1-443): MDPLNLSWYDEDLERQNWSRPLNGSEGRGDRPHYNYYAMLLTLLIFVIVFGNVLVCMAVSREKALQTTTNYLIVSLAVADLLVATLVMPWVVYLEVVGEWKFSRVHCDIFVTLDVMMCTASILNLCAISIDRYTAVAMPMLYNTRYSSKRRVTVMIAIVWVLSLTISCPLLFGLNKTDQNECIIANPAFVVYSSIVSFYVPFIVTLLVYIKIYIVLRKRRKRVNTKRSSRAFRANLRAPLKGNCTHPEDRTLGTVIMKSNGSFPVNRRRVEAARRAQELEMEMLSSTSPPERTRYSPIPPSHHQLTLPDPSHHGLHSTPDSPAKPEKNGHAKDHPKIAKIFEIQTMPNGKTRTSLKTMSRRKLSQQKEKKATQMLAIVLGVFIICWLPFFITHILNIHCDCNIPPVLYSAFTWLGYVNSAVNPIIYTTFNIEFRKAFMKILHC
- Assay remarks: perfused rabbit ear artery test for D2-agonist activity
pEC50: −log10 of the molar value.
Property label: pEC50

Task: Please tell me: pEC50 of Br.CCCN(CCC)CCc1ccc(O)c2c1C(=O)C(=O)N2 [hydrobromide] , system D2 (Oryctolagus cuniculus, UniProt G1T1Q0)?
Output: 8.15 to 8.70

* * *

- Assay target: D2 (Oryctolagus cuniculus)
- Construct: perfused rabbit ear artery test; from tissue; host or cells: perfused rabbit ear artery (sympathetic nerve terminals)
- Assay remarks: perfused rabbit ear artery test for D2-agonist activity
- Stated conditions: perfused rabbit ear artery test, D2-agonist activity; read-out: EC50
Property label: EC50

Task: // returns reported EC50 for input CCCN(CCC)CCc1ccc(O)c(O)c1 [N,N-di-n-propyldopamine, reference compound]
Output: 50 to 60 nM
